Target: T1, human GITR (hGITR), soluble analyte (human, UniProt Q9Y5U5 26-162)
T1 sequence: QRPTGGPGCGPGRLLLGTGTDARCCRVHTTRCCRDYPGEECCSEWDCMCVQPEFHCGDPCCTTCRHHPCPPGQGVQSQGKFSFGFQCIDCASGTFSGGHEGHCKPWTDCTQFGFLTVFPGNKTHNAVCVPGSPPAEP
Test: SPR (Biacore T200), 37 C; antibody captured on anti-human Fc chip, GITR as analyte; 1:1 Langmuir fit
Metric: t1/2 (s)
Kindly provide the numeric value in s only, without the unit symbol.

h10H2 HU (antibody, V domains shown, Whole IgG captured on an anti-human Fc chip) VH: QVQLVQSGAEVKKPGSSVKVSCKASGGTFSRYWIEWVRQAPGQGLEWMGEILPGSGVTNYNEKFKGRVTITADESTSTAYMELSSLRSEDTAVYYCARKGTYYAMDYWGQGTSVTVSS VL: EIVLTQSPGTLSLSPGERATLSCRASQSIGTSIHWYQQKPGQAPRLLIYYASESVSGIPDRFSGSGSGTDFTLTISRLEPEDFAVYYCQQTYSWPATFGQGTKVEIK    12.6

Any idea what t1/2 was measured for h3G7 LF (antibody, V domains shown, Whole IgG captured on an anti-human Fc chip) VH: QVQLVQSGAEVKKPGASVKVSCKASGYTFTGATMNWVRQAPGQGLEWMGLINPYTGGIRYNQKFKGRVTMTRDTSTSTVYMELSSLRSEDTAVYYCARIGGYYDTMDYWGQGTLVTVSS VL: DIQMTQSPSSLSASVGDRVTITCRASESVEPRGINFLNWYQQKPGKAPKLLIYAASQASKGVPSRFSGSGSGTDFTLTISSLQPEDFATYYCQQALELPWTFGGGTKVEIK ?
45.6
